experimentalTarget: T1, extracellular domain of human KLB expressed with C-terminal HA and hexahistidine tags (human, UniProt Q86Z14 1-996)
T1 construct: also called hKLB-HA-6His; hKLB-HA-6his
T1 sequence: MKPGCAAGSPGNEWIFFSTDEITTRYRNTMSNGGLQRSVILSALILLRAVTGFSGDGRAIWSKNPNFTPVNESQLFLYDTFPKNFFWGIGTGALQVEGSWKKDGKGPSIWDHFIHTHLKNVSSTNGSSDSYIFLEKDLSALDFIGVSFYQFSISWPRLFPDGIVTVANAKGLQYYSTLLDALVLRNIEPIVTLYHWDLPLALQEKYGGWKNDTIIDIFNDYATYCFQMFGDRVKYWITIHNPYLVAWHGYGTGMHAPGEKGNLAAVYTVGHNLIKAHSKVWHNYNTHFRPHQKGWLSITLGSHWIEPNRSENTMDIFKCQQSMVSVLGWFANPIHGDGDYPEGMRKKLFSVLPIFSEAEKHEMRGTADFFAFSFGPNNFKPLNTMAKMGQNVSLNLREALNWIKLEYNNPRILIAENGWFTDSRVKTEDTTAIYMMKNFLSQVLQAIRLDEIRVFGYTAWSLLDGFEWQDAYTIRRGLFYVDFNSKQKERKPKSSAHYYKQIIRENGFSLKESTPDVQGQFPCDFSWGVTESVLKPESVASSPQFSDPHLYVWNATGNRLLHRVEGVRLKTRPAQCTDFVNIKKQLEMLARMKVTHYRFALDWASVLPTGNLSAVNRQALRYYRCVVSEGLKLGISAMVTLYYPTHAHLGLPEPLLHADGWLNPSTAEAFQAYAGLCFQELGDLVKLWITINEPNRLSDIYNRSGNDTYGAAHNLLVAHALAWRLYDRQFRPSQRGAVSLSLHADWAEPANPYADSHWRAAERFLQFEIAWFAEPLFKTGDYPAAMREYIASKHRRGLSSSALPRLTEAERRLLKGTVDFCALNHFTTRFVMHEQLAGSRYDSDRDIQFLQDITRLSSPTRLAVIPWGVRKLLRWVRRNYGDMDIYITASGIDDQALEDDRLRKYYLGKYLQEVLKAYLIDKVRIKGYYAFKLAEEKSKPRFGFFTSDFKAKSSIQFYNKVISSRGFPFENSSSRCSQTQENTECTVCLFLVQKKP
procedureDetails: SPR, mAb captured, 25 C
# 20 nM hKLB-HA-6His Bind (RU) values compiled below
Give the number; RU is assumed, so skip it.

• H4H8837P (antibody, V domains shown, human IgG4 Fc (H4H prefix)) VH: QVQLVESGGGVVQPGRSLRLSCAASGFTFNSYAMHWVRQAPGMGLEWVAVISSDGSNKYYADSVRGRFTVSRDNSKNTLYLQMNSLRSEDTAVYYCAKDGRGYSSFSHFGMDVWGQGTTVTVSS VL: DIQMTQSPSTLSASVGDRVTITCRASQSIGSWLAWYQQKPGKAPKLLIYKTSSLESGVPSRFSGSGSGTEFTLTISSLQPDDFASYYCQQYNSYSFGQGTKVEIK = 63

[in] What does the data say about its 20 nM hKLB-HA-6His Bind (RU)? Entry: H2aM8832N (antibody, V domains shown, mouse IgG2 Fc (H2aM prefix)) VH: QVQLVESGGGVVQPGRSLRLSCAASGFTFSRYGMHWVRQAPGKGLEWVAVIWYDGTNKYYEDSLKGRFTISRDNSKNTLYLQMNSLRAEDSAVYYCARDQGKYIDYWGQGTLVTVSS VL: AIQMTQSPSSLSASVGDRVTITCRTSQDIRNDLGWYQQKPGKVPNLLIYAASTLQSGVPSRFSGSGSGTDFTLTISSLQPEDFATYYCLQDYNYPFTFGPGTKVDIK
[out] -0.2

[in] Also need H4H8859P (antibody, V domains shown, human IgG4 Fc (H4H prefix)) VH: EVQLVESGGSVVRPGGSLRLSCAASGFTFDVYGMSWVRQAPGKGLEWVSGINWIGGSTGYADSVKGRFTISRDNAKNSLYLQMNSLRAEDTALYYCTREEDYWGQGTLVTVSS VL: DVVMTQSPLSLAVTLGQPASISCRSSQSLVYSDGNTYLNWFQQRPGQSPRRLFYKVSNRDSGVPDRFSGSGSGTDFTLKISRVEAEDVGIYYCMQGIKWPLTFGGGTKVEIK , thanks.
[out] -0.8
